Measured IC50 values are reported for all entries that follow.
Molecular target: KRas^G12V (Homo sapiens, UniProt P01116, G12V)
Construct: Biotinylated KRas (corresponding to amino acids 1-169, produced at Accelegan Inc.); biotin (biotinylated); purchased Accelegan Inc
Sequence (P01116 1-169 isoform P01116-2 G12V): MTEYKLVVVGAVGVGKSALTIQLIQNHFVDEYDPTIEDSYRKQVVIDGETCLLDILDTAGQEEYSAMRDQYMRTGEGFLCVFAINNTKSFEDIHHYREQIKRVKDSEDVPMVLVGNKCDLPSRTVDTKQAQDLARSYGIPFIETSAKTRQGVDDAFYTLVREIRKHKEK
Experiment: KRas binding assay (TR-FRET tracer displacement), KRas G12V

Give a short answer stating reported IC50 for CCc1c(F)ccc2cc(O)cc(-c3ncc4c(N5C[C@@H]6C[C@H](C5)[C@H](O)C6)nc(OCC56CCCN5CC(=C(F)F)C6)nc4c3F)c12 (stereo partly drawn) [Example 798] .
< 2 nM

Could you please provide reported IC50 for CCc1c(F)ccc2cc(O)cc(-c3ncc4c(N5CCC[C@@](C)(O)C5)nc(OC[C@@]56CCCN5C/C(=C\F)C6)nc4c3F)c12 [Example 791] ? Thanks!
< 2 nM

Note down IC50 recorded for CCc1c(F)ccc2cc(O)cc(-c3ncc4c(N5CCC[C@@](C)(O)C5)nc(OC[C@@]56CCCN5C[C@H](F)CC6)nc4c3F)c12 [Example 815]
< 2 nM

----------
Listed here: items and their measured IC50.
Molecular target: KRas^G12C (Homo sapiens, UniProt P01116, G12C)
Construct: Biotinylated KRas (corresponding to amino acids 1-169, produced at Accelegan Inc.); biotin (biotinylated); purchased Accelegan Inc
Sequence (P01116 1-169 isoform P01116-2 G12C): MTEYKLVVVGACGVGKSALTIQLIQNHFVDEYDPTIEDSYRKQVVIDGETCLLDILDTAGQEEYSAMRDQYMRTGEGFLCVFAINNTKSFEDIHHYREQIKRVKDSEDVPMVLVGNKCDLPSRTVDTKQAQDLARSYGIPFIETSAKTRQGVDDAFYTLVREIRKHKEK
Experiment: KRas binding assay (TR-FRET tracer displacement), KRas G12C
Conditions: TR-FRET tracer displacement, KRas G12C

C=C1CN2CCCC2(COc2nc(N3CCCC4(CC(O)C4)C3)c3cnc(-c4cc(O)cc5ccc(F)c(CC)c45)c(F)c3n2)C1 (centres unmarked) [Example 934] ... < 2 nM
Oc1cc(Cl)c(C2CC2)c(-c2ncc3c(N4CCC[C@]5(C4)C[C@H](O)C5)nc(OCC45CCCN4CCC5)nc3c2F)c1 [Example 742] ... < 2 nM
O=C1NC(=O)[C@]2(CCCN(c3nc(OCC45CCCN4CCC5)nc4c(F)c(-c5c(C6CC6)c(Cl)cc6[nH]ncc56)ncc34)C2)N1 [Example 779] ... < 2 nM

Determine from records and report IC50 for C=C1CN2CCCC2(COc2nc(N3C[C@@H]4C[C@H](C3)[C@H](O)C4)c3cnc(-c4cc(O)cc5ccc(F)c(CC)c45)c(F)c3n2)C1 (some centres unmarked) [Example 800]
< 2 nM

Note down IC50 recorded for O=C1NC(=O)C2(CCCN(c3nc(OCC45CCCN4CCC5)nc4c(F)c(-c5cc(O)cc(Cl)c5C5CC5)ncc34)C2)N1 (centres unmarked) [Example 739]
< 2 nM

Give the reported value of IC50 for this record: C[C@@H]1C[C@@H]1c1c(Cl)cc(O)cc1-c1ncc2c(N3C[C@@H]4C[C@H](C3)[C@H](O)C4)nc(OC[C@@]34CCCN3C[C@H](F)C4)nc2c1F (stereo in doubt) [Example 920]
< 2 nM

Using the record for CCc1cccc2cc3[nH]ncc3c(-c3ncc4c(N5CCCC6(CNC(=O)N6)C5)nc(OC[C@@]56CCCN5C[C@H](F)C6)nc4c3F)c12 (some centres unmarked) [Example 769] , state its measured IC50.
< 2 nM

Retrieve IC50 measured for C/C=C1/CN2CCCC2(COc2nc(N3C[C@@H]4C[C@H](C3)[C@H](O)C4)c3cnc(-c4cc(O)cc5ccc(F)c(CC)c45)c(F)c3n2)C1 (some centres unmarked) [Example 939] and print it.
< 2 nM
